TEST_SYSTEM: c-Met (Homo sapiens, UniProt P08581)
Construct: Kinases are expressed as either kinase domains or full length constructs; made in house
Sequence (P08581 25-1390): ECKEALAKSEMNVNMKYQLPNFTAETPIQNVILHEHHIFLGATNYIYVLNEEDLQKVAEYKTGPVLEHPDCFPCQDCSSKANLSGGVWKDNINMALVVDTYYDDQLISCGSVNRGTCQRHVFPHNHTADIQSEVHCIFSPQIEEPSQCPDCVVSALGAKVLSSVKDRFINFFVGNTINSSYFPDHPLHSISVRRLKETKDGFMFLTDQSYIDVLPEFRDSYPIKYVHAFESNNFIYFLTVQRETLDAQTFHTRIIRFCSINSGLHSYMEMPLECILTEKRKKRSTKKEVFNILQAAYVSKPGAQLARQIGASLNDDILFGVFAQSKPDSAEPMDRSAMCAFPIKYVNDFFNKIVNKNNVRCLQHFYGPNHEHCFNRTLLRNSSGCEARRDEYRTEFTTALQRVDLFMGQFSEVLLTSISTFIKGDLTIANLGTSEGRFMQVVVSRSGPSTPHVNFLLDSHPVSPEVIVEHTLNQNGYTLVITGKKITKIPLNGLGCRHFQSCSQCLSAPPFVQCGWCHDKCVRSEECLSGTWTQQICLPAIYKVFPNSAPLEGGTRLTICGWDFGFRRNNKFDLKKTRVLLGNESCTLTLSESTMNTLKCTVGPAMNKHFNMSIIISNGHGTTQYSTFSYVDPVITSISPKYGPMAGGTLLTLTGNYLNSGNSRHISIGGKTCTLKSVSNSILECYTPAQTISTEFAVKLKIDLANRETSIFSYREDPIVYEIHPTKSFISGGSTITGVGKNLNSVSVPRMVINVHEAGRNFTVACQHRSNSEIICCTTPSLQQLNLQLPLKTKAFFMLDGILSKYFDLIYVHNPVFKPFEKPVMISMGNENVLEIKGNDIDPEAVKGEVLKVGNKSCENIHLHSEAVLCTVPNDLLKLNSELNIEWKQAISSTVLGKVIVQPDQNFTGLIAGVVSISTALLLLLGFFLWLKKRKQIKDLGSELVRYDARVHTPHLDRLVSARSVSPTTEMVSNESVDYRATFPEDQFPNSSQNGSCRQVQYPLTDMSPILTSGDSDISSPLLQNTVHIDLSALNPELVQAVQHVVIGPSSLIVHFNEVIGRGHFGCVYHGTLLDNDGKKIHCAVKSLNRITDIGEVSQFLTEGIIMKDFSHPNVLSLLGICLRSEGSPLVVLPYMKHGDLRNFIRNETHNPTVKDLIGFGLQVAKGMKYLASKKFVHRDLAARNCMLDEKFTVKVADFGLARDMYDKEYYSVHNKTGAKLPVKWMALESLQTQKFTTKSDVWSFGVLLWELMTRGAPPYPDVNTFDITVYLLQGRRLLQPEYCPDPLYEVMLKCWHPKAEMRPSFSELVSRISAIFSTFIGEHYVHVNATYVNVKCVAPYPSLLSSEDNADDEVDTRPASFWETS
ASSAY_TEXT: Kinase inhibition assay (33P transfer), c-Met
Format: biochemical
TEST_CONDITIONS: Table 2, kinase inhibition class; read-out: Met-1
pIC50: −log10 of the molar value.
OBSERVABLE: pIC50

Consider the worked cases shown below.
- MOLECULE: "COc1ccc(CNc2nc3ccccc3n2-c2ncnc(Nc3cccc(Cc4nnn[nH]4)c3)n2)cc1 [Compound 959]"
  pIC50: "5.32 to 6.10"
- MOLECULE: "O=c1[nH]c2ccccc2n1-c1ncnc(Nc2cc(C(F)(F)F)cc(C(F)(F)F)c2)n1 [Compound 506]"
  pIC50: "< 4.99"
- MOLECULE: "COc1ccc(Sc2ncnc(Nc3cc(OC)c(OC)c(OC)c3)n2)cc1 [Compound 175]"
  pIC50: "5.22 to 6.00"
- MOLECULE: "OCc1cccc(Nc2ncnc(Nc3cc(-c4ccco4)n[nH]3)n2)c1 [Compound 429]"
  pIC50: "> 5.94"
- MOLECULE: "CCOc1ccc(Nc2ncnc(Nc3ccc(OCc4ccccc4)cc3)n2)cc1OCC [Compound 170]"
  pIC50: "5.12 to 5.28"
- MOLECULE: "COc1cc(Nc2ncnc(Nc3nc4ccccc4s3)n2)cc(OC)c1OC [Compound 469]"
  pIC50: "< 4.96"

We next turn to a different molecule, shown below.
Identify measured pIC50 associated with COc1cc(Nc2ncnc(-c3ccncc3)n2)cc(OC)c1OC [Compound 42]
< 4.88
